# experimental.system: UniProtKB P14324
# Sequence (P14324 whole entry): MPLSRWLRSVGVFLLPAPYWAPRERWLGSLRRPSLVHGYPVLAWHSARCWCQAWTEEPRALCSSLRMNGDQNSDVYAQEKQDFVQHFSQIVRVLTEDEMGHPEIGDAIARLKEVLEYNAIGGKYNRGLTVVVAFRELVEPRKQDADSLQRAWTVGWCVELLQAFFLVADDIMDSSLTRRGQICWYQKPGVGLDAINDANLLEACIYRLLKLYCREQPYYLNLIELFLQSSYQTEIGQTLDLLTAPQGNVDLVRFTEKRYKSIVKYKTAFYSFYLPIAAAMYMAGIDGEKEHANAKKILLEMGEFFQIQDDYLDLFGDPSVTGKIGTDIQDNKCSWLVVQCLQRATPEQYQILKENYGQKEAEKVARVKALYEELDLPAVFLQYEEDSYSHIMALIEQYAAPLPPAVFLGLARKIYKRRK
Can you tell me pIC50 for the items I'm about to list?
pIC50 is defined as minus the log10 of a concentration measured in mol/L.

Bench note: what pIC50 did O=C(O)c1cc(Cn2c(C(=O)O)cc3ccc4ccccc4c32)on1 show?
7.10

# pIC50 lookup, item O=C(O)Cc1sc2ccccc2c1Cl
4.92

What value of measured pIC50 is listed for CC(C(=O)O)c1cc2c(Cl)cccc2s1 (stereo not drawn) ?
4.10
